# TARGET DESC: CCL22 (Homo sapiens, UniProt O00626)
# Construct: codes for the mature CCL17 or CCL22 with an N-terminal thioredoxin-hexahistidin (TRX- (His)6) tag; thioredoxin (TRX) (N, cleaved yes); (His)6 (N, cleaved yes); made in house; host or cells: E. coli BL21 (DE3)
# Sequence (O00626 25-93): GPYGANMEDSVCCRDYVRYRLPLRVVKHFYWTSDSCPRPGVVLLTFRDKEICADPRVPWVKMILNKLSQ
# ASSAY DETAILS: CCL22-induced CCR4+ HUT78 T cell chemotaxis (Transwell), neutraligand protocol
# Format: cell-based
# CONDITION: 3 nM CCL22 preincubated 1 h with compound; read-out: IC50, inhibition of CCL22-induced HUT78 chemotaxis
RECORDED ENDPOINT: IC50 (nM)
Kindly provide the numeric value in nM only, without the unit symbol.

Lookup result for O=C(OCC(O)CO)c1ccccc1O (stereo not shown) [GPN136, 2,3-dihydroxypropyl 2-hydroxybenzoate] ; measured IC50: 0.34

Source listed as paper PMC4595804.
